- Measurement target: rabbit mGPa (Oryctolagus cuniculus, UniProt P00489)
- Construct: purchased Creative Enzymes
- Experiment: In vitro glycogen phosphorylase inhibition assay (direction of glycogen synthesis, colorimetric phosphate)
- Type: biochemical
- Assay conditions: at 50 μM (highest concentration tested); mean ± SEM; read-out: GPa inhibitory activity (%)
Reported inhibition at 50 µM values are given for each entry in this list.

Answered cases to consult:
>>> reading("O=c1cc(/C=C/c2ccc(O)c(O)c2)oc2ccccc12")
"< 30%"
>>> reading("O=c1cc(-c2ccc(O)c(O)c2)oc2ccccc12")
"< 30%"

(Q) Fill in: inhibition at 50 µM of COc1cc(OC)c2c(=O)cc(/C=C/c3ccc(O)c(O)c3)oc2c1 is ___
(A) < 30%

(Q) Same again, this time with O=[N+]([O-])c1cccc(/C=C\c2c[nH]nc2-c2ccccc2O)c1
(A) < 30%

(Q) Same again, this time with COc1ccc2c(=O)cc(/C=C/C=C/c3ccc(OC)c(OC)c3)oc2c1
(A) 35.8%

###

Reported pIC50 values are given for each entry in this list.
- Measurement target: rabbit mGPa (Oryctolagus cuniculus)
- Construct: purchased Creative Enzymes
- Sequence (P00489 2-843 limits assumed): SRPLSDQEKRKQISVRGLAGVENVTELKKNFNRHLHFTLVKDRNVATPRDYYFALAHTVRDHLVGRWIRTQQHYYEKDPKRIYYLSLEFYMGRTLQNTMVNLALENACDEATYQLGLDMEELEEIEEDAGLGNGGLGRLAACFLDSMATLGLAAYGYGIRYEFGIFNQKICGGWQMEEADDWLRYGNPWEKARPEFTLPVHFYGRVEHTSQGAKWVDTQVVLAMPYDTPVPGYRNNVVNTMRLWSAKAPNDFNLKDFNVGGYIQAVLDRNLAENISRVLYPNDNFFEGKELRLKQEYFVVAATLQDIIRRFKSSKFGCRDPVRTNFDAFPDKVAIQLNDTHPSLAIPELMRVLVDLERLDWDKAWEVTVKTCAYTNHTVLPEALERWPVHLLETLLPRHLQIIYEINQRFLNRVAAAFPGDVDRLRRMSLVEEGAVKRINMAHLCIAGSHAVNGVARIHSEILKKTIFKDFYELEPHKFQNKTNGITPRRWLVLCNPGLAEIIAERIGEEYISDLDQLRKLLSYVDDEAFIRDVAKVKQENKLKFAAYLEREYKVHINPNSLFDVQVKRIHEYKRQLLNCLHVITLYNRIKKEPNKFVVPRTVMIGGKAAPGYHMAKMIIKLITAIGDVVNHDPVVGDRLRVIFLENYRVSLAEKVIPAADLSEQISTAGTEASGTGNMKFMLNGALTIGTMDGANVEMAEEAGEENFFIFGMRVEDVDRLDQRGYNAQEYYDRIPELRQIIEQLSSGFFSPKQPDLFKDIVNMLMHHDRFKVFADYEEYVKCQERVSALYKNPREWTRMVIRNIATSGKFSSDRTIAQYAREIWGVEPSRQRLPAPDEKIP
- Experiment: In vitro effect of glucose on inhibitor potency (GPa inhibition with 0, 5, 10 mM glucose)
- Type: biochemical
- Assay conditions: 5 mM of glucose; mean ± SEM; read-out: GPa IC50 value
The value called pIC50 is obtained by taking minus log10 of the concentration in mol/L.

>>> reading("O=c1cc(/C=C/C=C/c2ccc(O)c(O)c2)oc2cc(O)ccc12")
4.87
>>> reading("O=c1cc(-c2ccccc2)oc2cc(O)cc(O)c12")
5.06

(Q) Fill in: pIC50 of O=c1cc(-c2ccccc2)oc2c(O)c(O)cc(O)c12 is ___
(A) 5.05

###

- Measurement target: rabbit mGPa (Oryctolagus cuniculus, UniProt P00489)
- Construct: purchased Creative Enzymes
- Sequence (P00489 2-843 limits assumed): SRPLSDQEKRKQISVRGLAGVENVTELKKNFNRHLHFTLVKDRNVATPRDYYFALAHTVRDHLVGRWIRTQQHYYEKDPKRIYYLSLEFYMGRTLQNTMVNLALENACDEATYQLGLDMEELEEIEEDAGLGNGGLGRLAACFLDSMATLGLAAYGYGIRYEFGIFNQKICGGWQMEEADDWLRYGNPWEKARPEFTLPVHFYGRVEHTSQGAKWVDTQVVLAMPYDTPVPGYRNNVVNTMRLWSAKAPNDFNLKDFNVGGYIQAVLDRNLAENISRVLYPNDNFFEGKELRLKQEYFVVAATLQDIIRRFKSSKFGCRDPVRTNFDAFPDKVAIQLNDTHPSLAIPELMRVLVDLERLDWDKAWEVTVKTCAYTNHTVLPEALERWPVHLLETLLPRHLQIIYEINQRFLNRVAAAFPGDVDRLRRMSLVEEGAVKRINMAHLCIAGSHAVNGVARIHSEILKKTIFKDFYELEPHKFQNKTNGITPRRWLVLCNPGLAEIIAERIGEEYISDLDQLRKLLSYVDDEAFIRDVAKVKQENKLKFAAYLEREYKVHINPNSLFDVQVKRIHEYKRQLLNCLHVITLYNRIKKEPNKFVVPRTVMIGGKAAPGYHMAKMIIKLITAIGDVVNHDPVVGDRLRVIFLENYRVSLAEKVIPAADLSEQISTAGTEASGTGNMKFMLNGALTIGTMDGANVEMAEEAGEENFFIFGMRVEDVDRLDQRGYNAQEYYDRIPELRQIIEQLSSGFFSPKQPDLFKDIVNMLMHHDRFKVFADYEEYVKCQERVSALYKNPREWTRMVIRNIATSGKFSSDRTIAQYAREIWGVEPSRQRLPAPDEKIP
- Experiment: In vitro effect of glucose on inhibitor potency (GPa inhibition with 0, 5, 10 mM glucose)
- Assay type: biochemical
- Assay conditions: 0 mM of glucose; mean ± SEM; read-out: GPa IC50 value
Reported endpoint: pIC50
The value called pIC50 is obtained by taking minus log10 of the concentration in mol/L.

Answered cases to consult:
>>> reading("O=c1cc(-c2ccccc2)oc2cc(O)cc(O)c12")
4.71
>>> reading("O=c1cc(/C=C/C=C/c2ccc(O)c(O)c2)oc2cc(O)ccc12")
4.78

(Q) Fill in: pIC50 of COc1cc(O)c2c(=O)cc(/C=C/C=C/c3ccc(O)c(O)c3)oc2c1 is ___
(A) 4.80

(Q) Same again, this time with O=c1cc(-c2ccccc2)oc2c(O)c(O)cc(O)c12
(A) 4.88

###

- Measurement target: rabbit mGPa (Oryctolagus cuniculus, UniProt P00489)
- Construct: purchased Creative Enzymes
- Experiment: In vitro glycogen phosphorylase inhibition assay (direction of glycogen synthesis, colorimetric phosphate)
- Format: biochemical
- Assay conditions: no glucose; mean ± SEM; read-out: GPa IC50 value
- Description: The GP activity was measured using a previously optimized and validated method. In each assay, GP activity was measured by the direction of glycogen synthesis, which involved monitoring the colorimetric determination of inorganic phosphate deriving from glucose 1-phosphate. […] After this incubation time, the reagent for colorimetric phosphate quantitation, BIOMOL® Green, was added to the reaction mixture. […]
Reported endpoint: IC50
Could you kindly put the unit after your number?

>>> reading("COc1cc2oc(-c3ccccc3)cc(=O)c2c(O)c1O")
"22.6 µM"
>>> reading("O=c1cc(/C=C/c2ccc(O)c(O)c2)oc2cc(O)cc(O)c12")
"31.7 µM"

(Q) Fill in: IC50 of O=c1cc(-c2ccccc2)oc2cc(O)c(O)c(O)c12 is ___
(A) 23.5 µM

###

- Measurement target: rabbit mGPa (Oryctolagus cuniculus)
- Construct: purchased Creative Enzymes
- Sequence (P00489 2-843 limits assumed): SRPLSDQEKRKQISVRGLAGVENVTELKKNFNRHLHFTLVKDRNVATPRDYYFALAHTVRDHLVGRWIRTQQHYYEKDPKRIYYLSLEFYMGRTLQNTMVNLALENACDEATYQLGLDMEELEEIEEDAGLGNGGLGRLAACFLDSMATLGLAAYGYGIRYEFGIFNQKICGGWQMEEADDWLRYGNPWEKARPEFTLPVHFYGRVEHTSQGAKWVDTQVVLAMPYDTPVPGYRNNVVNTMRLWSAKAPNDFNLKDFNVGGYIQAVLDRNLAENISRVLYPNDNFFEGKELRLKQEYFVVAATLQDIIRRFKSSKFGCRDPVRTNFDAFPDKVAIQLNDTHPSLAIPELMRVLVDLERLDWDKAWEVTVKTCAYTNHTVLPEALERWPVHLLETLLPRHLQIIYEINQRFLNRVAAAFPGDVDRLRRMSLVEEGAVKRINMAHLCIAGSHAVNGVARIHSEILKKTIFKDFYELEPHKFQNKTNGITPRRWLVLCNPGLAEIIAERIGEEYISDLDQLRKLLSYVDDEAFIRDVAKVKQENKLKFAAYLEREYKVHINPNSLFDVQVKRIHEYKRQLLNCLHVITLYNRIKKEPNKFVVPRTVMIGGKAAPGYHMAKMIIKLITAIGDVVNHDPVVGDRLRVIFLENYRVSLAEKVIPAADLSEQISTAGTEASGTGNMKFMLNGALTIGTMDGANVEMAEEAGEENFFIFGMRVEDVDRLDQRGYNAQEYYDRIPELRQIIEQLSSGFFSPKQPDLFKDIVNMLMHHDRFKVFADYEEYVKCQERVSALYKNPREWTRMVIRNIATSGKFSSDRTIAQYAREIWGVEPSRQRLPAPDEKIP
- Experiment: In vitro glycogen phosphorylase inhibition assay (direction of glycogen synthesis, colorimetric phosphate)
- Type: biochemical
- Assay conditions: at 50 μM (highest concentration tested); mean ± SEM; read-out: GPa inhibitory activity (%)
Reported inhibition at 50 µM values are given for each entry in this list.

>>> reading("CCCCCCCCCCCCn1cc(/C=C/c2ccc(Cl)cc2)c(-c2ccccc2O)n1")
"< 30%"
>>> reading("CCCCCCCCCCn1cc(/C=C/c2ccccc2)c(-c2ccccc2O)n1")
"< 30%"
>>> reading("COc1ccc2c(=O)cc(/C=C/C=C/c3ccc(O)c(O)c3)oc2c1")
"51.9%"
>>> reading("COc1cc(OC)c2c(=O)cc(/C=C/c3ccc(OC)c(OC)c3)oc2c1")
"42.2%"
>>> reading("O=c1cc(/C=C/c2ccc(O)cc2)oc2cc(O)ccc12")
"< 30%"
>>> reading("O=c1c(O)c(-c2ccc(O)c(O)c2)oc2cc(O)cc(O)c12")
"< 30%"
>>> reading("O=c1cc(-c2ccc(O)c(O)c2)oc2cc(O)cc(O)c12")
"< 30%"
>>> reading("Oc1ccccc1-c1n[nH]cc1/C=C/c1ccccc1")
"< 30%"
>>> reading("COc1ccc2c(=O)cc(/C=C/c3ccc(OC)c(OC)c3)oc2c1")
"< 30%"

Next, consider the following molecule.
(Q) Fill in: inhibition at 50 µM of COc1ccc(/C=C/c2c[nH]nc2-c2ccccc2O)cc1 is ___
(A) < 30%

From: paper PMC8781192
